Experiment: Tmax in Sprague-Dawley rat plasma at 20 mg/kg, po measured for 10 hrs by LC-MS/MS analysis
Assay type: ADME, organism-based
recorded endpoint: Tmax (h)
Report only the number, with the unit h understood.

# input Look up Tmax: COc1cc(F)ccc1[C@H]1CSc2cc(O)ccc2[C@H]1c1ccc(OCCN2CC(CF)C2)cc1
# output 6

---

Exercise: state measured IC50 for each of the molecules provided.
Tested on: CAMA-1
Test: Antiproliferative activity against human CAMA-1 cells assessed as reduction in cell viability
Express the result in nM but write the number alone.

# input Return reported IC50; argument: COc1cc(F)ccc1[C@H]1CSc2cc(O)ccc2[C@H]1c1ccc(OCCN2CC(CF)C2)cc1
# output 4

# input Given Oc1ccc2c(c1)SC[C@H](c1cc(F)c(F)cc1F)[C@@H]2c1ccc(OCCN2CC(CF)C2)cc1 , state its recorded IC50.
# output 4

---

Assay: Clearance in Sprague-Dawley rat plasma at 2 mg/kg, iv measured for 24 hrs by LC-MS/MS analysis
Format: ADME, organism-based
recorded endpoint: clearance (mL/min/kg)
The figure you give is taken to be in mL/min/kg; do not add the unit.

# input // query clearance value for entry COc1cc(F)ccc1[C@H]1CSc2cc(O)ccc2[C@H]1c1ccc(OCCN2CC(CF)C2)cc1
# output 23.3

---

Assay: MRT in Sprague-Dawley rat plasma at 2 mg/kg, iv measured for 24 hrs by LC-MS/MS analysis
Format: ADME, organism-based
recorded endpoint: MRT (h)
Provide only the numeric value, understood in h.

# input Look up MRT: COc1cc(F)ccc1[C@H]1CSc2cc(O)ccc2[C@H]1c1ccc(OCCN2CC(CF)C2)cc1
# output 5.24

---

Assay: Half life in Sprague-Dawley rat plasma at 10 mg/kg, po measured for 24 hrs by LC-MS/MS analysis
Type: ADME, organism-based
recorded endpoint: half-life (h)
Reply numerically in h, unit not repeated.

# input For the compound COc1cc(F)ccc1[C@H]1CSc2cc(O)ccc2[C@H]1c1ccc(OCCN2CC(CF)C2)cc1 , what half-life is on record?
# output 8.9

---

Assay: C0 in Sprague-Dawley rat plasma at 2 mg/kg, iv by LC-MS/MS analysis
Assay type: ADME, organism-based
recorded endpoint: C0 (ng/mL)
Hi! Could you send only the number? It should be in ng/mL, unit omitted.

# input Record request: C0 value, item COc1cc(F)ccc1[C@H]1CSc2cc(O)ccc2[C@H]1c1ccc(OCCN2CC(CF)C2)cc1
# output 741

---

Assay: Volume of distribution at steady state in Sprague-Dawley rat plasma at 2 mg/kg, iv measured for 24 hrs by LC-MS/MS analysis
Assay type: ADME, organism-based
Conditions: read-out: Vdss
recorded endpoint: Vd (L/kg)
Write the value in L/kg as a bare number.

# input I would be grateful if you could share the reported Vd for COc1cc(F)ccc1[C@H]1CSc2cc(O)ccc2[C@H]1c1ccc(OCCN2CC(CF)C2)cc1 .
# output 6.6

---

Assay: MRT in Sprague-Dawley rat plasma at 10 mg/kg, po measured for 24 hrs by LC-MS/MS analysis
Type: ADME, organism-based
recorded endpoint: MRT (h)
Just the number please, in h, no unit attached.

# input Tell me the measured MRT of COc1cc(F)ccc1[C@H]1CSc2cc(O)ccc2[C@H]1c1ccc(OCCN2CC(CF)C2)cc1 , please.
# output 13.4

---

Target: Estrogen receptor (Homo sapiens, UniProt P03372)
Sequence (P03372 whole entry): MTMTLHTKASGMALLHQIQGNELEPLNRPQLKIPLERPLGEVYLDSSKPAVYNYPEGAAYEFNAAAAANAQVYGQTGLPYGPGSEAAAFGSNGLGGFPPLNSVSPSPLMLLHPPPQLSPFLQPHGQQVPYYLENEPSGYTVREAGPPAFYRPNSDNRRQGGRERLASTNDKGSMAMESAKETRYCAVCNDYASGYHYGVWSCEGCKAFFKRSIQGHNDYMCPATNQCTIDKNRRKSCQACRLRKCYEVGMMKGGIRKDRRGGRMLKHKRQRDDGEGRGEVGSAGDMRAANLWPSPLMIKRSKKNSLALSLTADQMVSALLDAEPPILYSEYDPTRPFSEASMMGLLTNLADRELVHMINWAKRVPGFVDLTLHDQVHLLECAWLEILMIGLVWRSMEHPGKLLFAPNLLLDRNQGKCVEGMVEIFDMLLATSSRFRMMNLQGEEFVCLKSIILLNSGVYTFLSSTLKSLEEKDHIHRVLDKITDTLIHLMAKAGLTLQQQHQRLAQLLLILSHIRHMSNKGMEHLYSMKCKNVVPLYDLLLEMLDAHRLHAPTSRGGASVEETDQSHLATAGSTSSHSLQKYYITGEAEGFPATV
recorded endpoint: pIC50
Scale explanation: pIC50 corresponds to minus log10 of a concentration expressed in moles per litre.

# input Value wanted: pIC50 (Estrogen receptor (Homo sapiens, UniProt P03372)) of entry C[C@@H]1Cc2c([nH]c3ccccc23)[C@@H](c2c(F)cc(NC3CN(CCCF)C3)cc2F)N1CC(F)(F)CO
# output 9.37

---

Experiment: MRT in Sprague-Dawley rat brain at 20 mg/kg, po measured for 10 hrs by LC-MS/MS analysis
Format: ADME, organism-based
recorded endpoint: MRT
I'd appreciate it if you included the unit after the number.

# input Item COc1cc(F)ccc1[C@H]1CSc2cc(O)ccc2[C@H]1c1ccc(OCCN2CC(CF)C2)cc1 has what recorded MRT?
# output 12.4 h

---

System: BT-474
Assay: Antiproliferative activity against human BT-474 cells assessed as reduction in cell viability
recorded endpoint: IC50 (nM)
Respond with the bare value in nM.

# input What does the data say about its IC50? Entry: Oc1ccc2c(c1)SC[C@H](c1cc(F)c(F)cc1F)[C@@H]2c1ccc(OCCN2CC(CF)C2)cc1
# output 4

# input Any idea what its IC50 is? The compound is COc1cc(F)ccc1[C@H]1CSc2cc(O)ccc2[C@H]1c1ccc(OCCN2CC(CF)C2)cc1
# output 4

---

Test: Ratio of drug level in brain to plasma in Sprague-Dawley rat at 20 mg/kg, po measured for 10 hrs by LC-MS/MS analysis
Assay type: ADME, organism-based
Details: brain and plasma
recorded endpoint: Kp at 10 h
Output spec: single numeric token, no unit.

# input Which value of Kp at 10 h has been reported for COc1cc(F)ccc1[C@H]1CSc2cc(O)ccc2[C@H]1c1ccc(OCCN2CC(CF)C2)cc1 in the records?
# output 3.05

---

Target: Estrogen receptor (Homo sapiens, UniProt P03372)
Sequence (P03372 whole entry): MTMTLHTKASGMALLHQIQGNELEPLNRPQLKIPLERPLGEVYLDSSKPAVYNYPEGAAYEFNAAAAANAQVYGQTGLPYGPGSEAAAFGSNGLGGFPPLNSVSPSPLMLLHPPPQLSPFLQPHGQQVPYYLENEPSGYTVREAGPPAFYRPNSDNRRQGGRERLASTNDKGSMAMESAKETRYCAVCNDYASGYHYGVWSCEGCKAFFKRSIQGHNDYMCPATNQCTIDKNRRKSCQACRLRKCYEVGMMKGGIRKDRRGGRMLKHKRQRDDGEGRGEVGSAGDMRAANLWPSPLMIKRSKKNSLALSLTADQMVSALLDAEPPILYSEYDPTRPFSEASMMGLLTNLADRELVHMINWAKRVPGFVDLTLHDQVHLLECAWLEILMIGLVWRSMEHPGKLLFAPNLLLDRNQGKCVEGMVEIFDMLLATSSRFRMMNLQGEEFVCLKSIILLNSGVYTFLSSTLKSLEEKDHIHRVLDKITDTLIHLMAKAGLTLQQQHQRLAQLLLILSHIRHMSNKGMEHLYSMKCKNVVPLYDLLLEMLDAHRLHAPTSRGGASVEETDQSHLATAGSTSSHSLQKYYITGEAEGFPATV
Experiment: Induction of ER-alpha degradation in human MCF7 cells incubated for 24 hrs by In-Cell Western blot analysis
Assay type: cell-based
Lab note: class by DC50, see low: < 3 nM; medium: ≥ 3 nM and < 10 nM; high: ≥ 10 nM

# input Could you tell me which band FCC1CN(CCOc2ccc([C@@H]3c4ccc5[nH]ncc5c4SC[C@@H]3c3cc(F)c(F)cc3F)cc2)C1 (racemic) belongs to?
# output medium

# input Band assignment needed for C[C@@H]1Cc2c([nH]c3ccccc23)[C@@H](c2c(F)cc(NC3CN(CCCF)C3)cc2F)N1CC(F)(F)CO please.
# output low

# input Which DC50 band matches COc1cc(F)ccc1[C@H]1CSc2cc(C(=O)O)ccc2[C@H]1c1ccc(OCCN2CC(CF)C2)cc1 (racemic) ?
# output medium

# input Looking at CS(=O)(=O)N1CCC([C@H]2COc3cc(O)ccc3[C@H]2c2ccc(OCCN3CC(CF)C3)cc2)CC1 (racemic) , which class would you pick?
# output medium

# input Band of Oc1ccc2c(c1)OC[C@H](c1ccc(F)cc1F)[C@@H]2c1ccc(OC2CN(CCCF)C2)cc1 (racemic) ?
# output low

# input Which band does Oc1ccc2c(c1)OC[C@H](c1ccc(F)cc1F)[C@@H]2c1ccc(NC2CN(CCCF)C2)cc1 (racemic) fall in?
# output low

# input Note: place this compound into its band. Item: Oc1ccc2c(c1)CCC[C@H](c1ccc(F)cc1F)[C@@H]2c1ccc(OCCN2CC(CF)C2)cc1 (racemic)
# output high

# input Using the reported DC50, which band applies to Oc1ccc2c(c1)OC[C@H](c1ccc(F)cc1F)[C@@H]2c1ccc(NCCN2CC(CF)C2)cc1 (racemic) ?
# output low

# input Using the reported DC50, which band applies to COc1cc(F)ccc1[C@H]1CSc2c(ccc3[nH]ncc23)[C@H]1c1ccc(OCCN2CC(CF)C2)cc1 (racemic) ?
# output medium

# input State the band of CC(=O)N1CCC([C@H]2COc3cc(O)ccc3[C@H]2c2ccc(OCCN3CC(CF)C3)cc2)CC1 (racemic)
# output high

# input Categorize the following entry: Cn1cc([C@H]2COc3cc(O)ccc3[C@H]2c2ccc(OCCN3CC(CF)C3)cc2)cn1 (racemic)
# output high

# input Just checking, what class would you give COc1cc([C@@H]2c3ccc(O)cc3OC[C@@H]2c2ccc(F)cc2F)ccc1OCCN1CC(CF)C1 (racemic) here?
# output medium
